Exercise: for every item that follows, state its recorded PBM E-score.
# SYSTEM_NAME: Sko1 (UniProt Q02100)
# Sequence: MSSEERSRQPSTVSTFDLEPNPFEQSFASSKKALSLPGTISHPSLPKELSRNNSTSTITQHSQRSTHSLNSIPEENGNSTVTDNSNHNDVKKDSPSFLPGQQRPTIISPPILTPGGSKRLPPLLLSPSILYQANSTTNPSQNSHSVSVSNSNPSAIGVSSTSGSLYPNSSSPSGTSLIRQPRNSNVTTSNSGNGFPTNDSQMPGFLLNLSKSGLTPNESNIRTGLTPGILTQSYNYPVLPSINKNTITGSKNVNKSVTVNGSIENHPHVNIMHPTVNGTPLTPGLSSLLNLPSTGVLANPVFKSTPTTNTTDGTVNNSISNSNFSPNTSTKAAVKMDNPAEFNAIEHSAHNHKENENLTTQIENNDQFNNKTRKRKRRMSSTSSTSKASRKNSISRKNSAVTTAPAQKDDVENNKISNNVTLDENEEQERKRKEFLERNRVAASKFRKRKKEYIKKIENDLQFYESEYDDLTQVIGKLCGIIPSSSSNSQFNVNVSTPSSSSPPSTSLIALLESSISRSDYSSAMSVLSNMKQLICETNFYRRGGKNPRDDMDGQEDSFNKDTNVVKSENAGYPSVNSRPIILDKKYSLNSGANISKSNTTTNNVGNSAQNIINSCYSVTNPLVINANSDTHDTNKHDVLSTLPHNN
# ASSAY_REMARKS: PBM E-score (8-mer binding enrichment) (E-score (-0.5 to 0.5)); higher = stronger / more preferred TF binding
# DETAILS: protein concentration: 200 nM; construct: GST-full length
Over roughly 33,000 sequences, “E-score (-0.5 to 0.5)” has its median near -0.032; the highest 2% begin near 0.36. Many of the other results were omitted from the sample, so the highest values are more common in it than they were.
Please respond with just the number, no unit label.

PBM E-score recorded for this sequence, GCGTATCC , is 0.142

What the record says about AACTTAGC : PBM E-score is 0.0908

PBM E-score in this record for ACGTATCG : 0.452

CCGTATCG yielded PBM E-score of -0.171

Sample ACGTATCA ; PBM E-score observed: 0.438

Values compiled from the supplement of paper PMC3334620.
